Biological target: huPD-L1 (Homo sapiens, UniProt Q9NZQ7)
Sequence (Q9NZQ7 19-290): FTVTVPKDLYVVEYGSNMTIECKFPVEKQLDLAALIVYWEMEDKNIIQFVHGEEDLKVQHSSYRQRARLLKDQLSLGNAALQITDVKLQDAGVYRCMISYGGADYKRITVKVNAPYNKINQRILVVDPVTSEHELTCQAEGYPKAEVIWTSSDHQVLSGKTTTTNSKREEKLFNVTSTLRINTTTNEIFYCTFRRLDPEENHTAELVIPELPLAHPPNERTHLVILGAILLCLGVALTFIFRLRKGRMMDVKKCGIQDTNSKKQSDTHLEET
Test: Flow binding to CHO cells stably expressing PD-L1
Parameters: huCTLA4 and huPD-L1, full-length mammalian surface expression constructs were generated; expressed in transfected cells; host or cells: CHO cells, lentiviral transduction, sorted to >98% purity
Details: Table E23; CD80 IgV-Fc (inert) at 33.3 nM; CHO cells stably expressing PD-L1
Item-by-item account of PD-L1 MFI at 33.3 nM
// no unit string in output, number only

{"molecule": "H18Y/E35D/M47V/V68M/A71G (protein, UniProt P33681 35-288, looked up, variant H18Y E35D M47V V68M A71G) T-lymphocyte activation …: VIHVTKEVKEVATLSCGYNVSVEELAQTRIYWQKDKKMVLTMMSGDVNIWPEYKNRTIFDITNNLSIMILGLRPSDEGTYECVVLKYEKDAFKREHLAEVTLSVKADFPTPSISDFEIPTSNIRRIICSTSGGFPEPHLSWLENGEELNAINTTVSQDPETELYAVSSKLDFNMTTNHSFMCLIKYGHLRVNQTFNWNTTKQEHFPDNLLPSWAITLISVNGIFVICCLTYCFAPRCRERRRNERLRRESVRPV", "readout-number": 64919}

Consider the record given below.
Recorded PD-L1 MFI at 33.3 nM for H18F/A26N/E35D/M47V/V68M/A71G/D90K (protein, UniProt P33681 35-288, looked up, variant H18F A26N E35D M47V V68M A71G D90K) T-lymphocyte activation …: VIHVTKEVKEVATLSCGFNVSVEELNQTRIYWQKDKKMVLTMMSGDVNIWPEYKNRTIFDITNNLSIMILGLRPSDEGTYECVVLKYEKKAFKREHLAEVTLSVKADFPTPSISDFEIPTSNIRRIICSTSGGFPEPHLSWLENGEELNAINTTVSQDPETELYAVSSKLDFNMTTNHSFMCLIKYGHLRVNQTFNWNTTKQEHFPDNLLPSWAITLISVNGIFVICCLTYCFAPRCRERRRNERLRRESVRPV , please? 22395
